Value source: patent US9969743B2

Ki data for human D3 dopamine receptor (Homo sapiens (Human), UniProt P35462) follow.
QUANTITY: Ki (nM)

[P] CC(C)(C)c1nc(C2CC2)cc(N2CCN(CCCCNC(=O)N3CCc4c([nH]c5ccccc45)C3)CC2)n1
[Q] CC(C)(C)c1cc(N2CCN(CCCCNC(=O)N3CCc4c([nH]c5ccccc45)C3)CC2)nc(C(C)(C)C)n1
[R] CC(C)(C)c1cc(N2CCN(CCCCNC(=O)N3CCc4c([nH]c5ccccc45)C3)CC2)cc(C(C)(C)C)c1
Sort the compounds on Ki; start with the lowest figure. Answer by listing the labels in the requested order. Q, P, R
